Molecular target: Glutamate NMDA receptor; GRIN1/GRIN2B (Homo sapiens, UniProt Q05586+Q13224)
Sequence (Q13224 whole entry, other chains not shown): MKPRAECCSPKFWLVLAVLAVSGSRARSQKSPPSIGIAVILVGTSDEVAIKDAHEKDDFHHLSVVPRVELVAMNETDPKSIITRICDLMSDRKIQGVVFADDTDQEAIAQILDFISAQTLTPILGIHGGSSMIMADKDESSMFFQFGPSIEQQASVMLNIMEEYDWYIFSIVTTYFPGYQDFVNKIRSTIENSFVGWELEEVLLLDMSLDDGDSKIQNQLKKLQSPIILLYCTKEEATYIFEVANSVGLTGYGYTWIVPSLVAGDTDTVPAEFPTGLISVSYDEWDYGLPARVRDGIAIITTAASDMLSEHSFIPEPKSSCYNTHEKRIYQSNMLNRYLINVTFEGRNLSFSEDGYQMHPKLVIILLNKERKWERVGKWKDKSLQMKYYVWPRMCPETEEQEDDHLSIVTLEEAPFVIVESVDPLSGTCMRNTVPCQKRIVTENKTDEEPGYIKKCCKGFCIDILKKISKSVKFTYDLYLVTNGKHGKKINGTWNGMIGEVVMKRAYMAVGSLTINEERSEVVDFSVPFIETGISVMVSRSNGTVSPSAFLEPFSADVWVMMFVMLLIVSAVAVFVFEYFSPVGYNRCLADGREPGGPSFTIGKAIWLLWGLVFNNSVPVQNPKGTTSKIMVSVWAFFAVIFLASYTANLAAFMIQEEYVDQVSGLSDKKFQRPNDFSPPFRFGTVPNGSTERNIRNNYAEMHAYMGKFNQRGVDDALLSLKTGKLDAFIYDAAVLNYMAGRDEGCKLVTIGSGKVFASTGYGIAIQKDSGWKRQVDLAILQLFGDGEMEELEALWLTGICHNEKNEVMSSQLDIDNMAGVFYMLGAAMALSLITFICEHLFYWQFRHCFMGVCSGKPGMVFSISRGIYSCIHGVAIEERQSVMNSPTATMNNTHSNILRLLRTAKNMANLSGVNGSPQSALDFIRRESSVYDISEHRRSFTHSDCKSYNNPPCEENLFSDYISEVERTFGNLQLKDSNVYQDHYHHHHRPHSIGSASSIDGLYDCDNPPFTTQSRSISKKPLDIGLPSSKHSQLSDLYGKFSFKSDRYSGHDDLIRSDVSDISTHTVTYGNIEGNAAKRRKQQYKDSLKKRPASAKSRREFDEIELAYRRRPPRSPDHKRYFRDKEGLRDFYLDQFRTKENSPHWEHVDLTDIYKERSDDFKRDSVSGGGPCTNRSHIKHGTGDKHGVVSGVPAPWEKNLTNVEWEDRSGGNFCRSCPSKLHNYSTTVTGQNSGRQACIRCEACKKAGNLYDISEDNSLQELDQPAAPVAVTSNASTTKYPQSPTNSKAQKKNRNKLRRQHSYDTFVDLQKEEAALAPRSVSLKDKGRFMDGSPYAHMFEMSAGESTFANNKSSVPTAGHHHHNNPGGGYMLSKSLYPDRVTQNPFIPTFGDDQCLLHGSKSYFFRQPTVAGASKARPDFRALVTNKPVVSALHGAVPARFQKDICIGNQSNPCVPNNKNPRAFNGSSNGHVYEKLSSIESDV
Assay: Negative allosteric modulation of human GluN1A/GluN2B receptor expressed in T-REX-CHO cells preincubated for 5 mins followed by glutamate and glycine addition and measured after 5 mins by FLIPR assay
pIC50: −log10 of the molar value.

COMPOUND	pIC50
FC(F)Oc1cc(-n2cc(COc3ccncn3)nn2)ccc1Cl	6.08
FC(F)Oc1cc(-n2cc(COc3cncnc3)nn2)ccc1Cl	5.60
FC(F)Oc1cc(-n2cc(CNc3ccccn3)nn2)ccc1Cl	6.30
Cc1cnc(OCc2cn(-c3ccc(F)c(OC(F)F)c3)nn2)nc1	8.46
Fc1ccc(-n2cc(COc3ncc(N4CCC4)cn3)nn2)cc1OC(F)F	7.96
Cc1cnc(OCc2cn(-c3ccnc(C)c3)nn2)nc1	6.11
Nc1nc(OCc2cn(-c3ccc(F)c(OC(F)F)c3)nn2)ncc1F	7.80
FC(F)Oc1cc(-n2cc(CNc3ncco3)nn2)ccc1Cl	6.41
Cc1ccnc(OCc2cn(-c3ccc(F)c(OC(F)F)c3)nn2)n1	8.08
Cc1cnc(OCc2cn(-c3ccc(Cl)c(OC(F)F)c3)nn2)nc1	8.72
Fc1cccnc1OCc1cn(C2CCC(Cl)C(OC(F)F)C2)nn1 (stereo unspecified)	6.89
